Every entry's value here was drawn from PubChem BioAssay (NCI).

Experiment: NCI Yeast Anticancer Drug Screen. Data for the rad50 strain (AID 155);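 further: 0% = growth of vehicle-only cultures of the same strain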
Conditions: S. cerevisiae rad50 strain growth inhibition; at 50.0 µM (retest, dose inferred, filed as 5.0); active compounds read high
About 79,000 compounds went through this panel and 15% of them were active in at least one assay; those are over-represented in the sample as a whole.
Listed here: items and their measured growth inhibition.
parameter: growth inhibition (%)

> print(dat)
                                    molecule          parameter  test.result
 1  CC12CCC(=O)C=C1C=CC1C2CCC2(C)C1CCC21CCC(=O)O1 (configuration not stated)  growth inhibition           99
 2  CC1=NOC(=O)C1N=Nc1ccc(Br)cc1C (configuration not stated)  growth inhibition           95
 3  O=C1C(Cl)=C(N2C(=O)CCCC2=O)C(=O)c2ccccc21  growth inhibition           99
 4  O=[N+]([O-])c1ccccc1C(c1ccc2ccccc2c1O)N1CCOCC1 (configuration not stated)  growth inhibition           95
 5  C=C1N(S(=O)(=O)c2ccc(C)cc2)C(=O)OCC12CCCC2  growth inhibition            3
 6        Cc1cc(Cl)c2cc(Cc3ccc(Br)cc3)ccc2n1  growth inhibition           10
 7  C(=N\NC1=NCCN1)/c1ccc(-c2cn3cc(/C=N/NC4=NCCN4)ccc3n2)cc1  growth inhibition           99
 8       CCOC(=O)Nc1nc2ccc(Cn3cccc3)cc2[nH]1  growth inhibition           31
 9                     CCCCCN(CCCCC)C(=O)CCl  growth inhibition           30
10  Cc1cc2c(C(C)C)c(O)c(O)c3coc(/c1=c1/c(C)cc4c(C(C)C)c(=O)c(=O)c5coc1c45)c32  growth inhibition           97
11  CN1CCN=C1c1ccc(NC(=O)Nc2ccc(NC(=O)Nc3ccc(C4=NCCN4C)cc3)cc2)cc1  growth inhibition           80
12  COc1ccc(C(c2c(O)c3ccccc3oc2=O)N2CCOCC2)c(OC)c1 (configuration not stated)  growth inhibition            3

* * *

Listed here: items and their measured growth inhibition.
Assay: NCI Yeast Anticancer Drug Screen. Data for the cln2 rad14 strain (AID 165);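 further: 0% = growth equal to vehicle treated cultures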
Conditions: S. cerevisiae cln2 rad14 strain, at 50.0 µM (retest, dose inferred, filed as 5.0), active compounds read high
Procedure: Growth inhibition of yeast strains with defined genetic alterations is measured as a screen for potential anti-cancer activity. Selected strains with alterations in DNA damage repair or cell cycle control were exposed to compounds and growth inhibition was measured relative to vehicle treated controls. The strain used in this assay is cln2 rad14
The panel holds about 79,000 compounds, 15% with a hit somewhere; the sample as a whole holds those more often.
parameter: growth inhibition (%)

> print(dat)
                                    molecule  unit.text  test.result
 1  CCCOC(=O)C(S)C(S)C(=O)OCCC (configuration not stated)          %           90
 2       CN1CCCN(C)C1c1cc([N+](=O)[O-])ccc1O          %           93
 3  C[C@]12CC[C@H](O)CC1=CC[C@@H]1C2CC[C@]2(C)C(=O)N(N)C(=O)CC12 (some centres not stated)          %           92
 4               COc1ccc(N)c([N+](=O)[O-])c1          %           10
 5           CCN(CC)C(=S)N/N=C/c1cc(OC)ccc1O          %           62
 6  Cc1cc(Cl)c2c(c1)C(=O)/C(=C/c1ccc(Cl)cc1)O2          %           99
 7         CC(=O)c1sc(Nc2ccc(Cl)c(Cl)c2)nc1C          %           35
 8  O=C(CC(c1ccccc1)N1CCCCC1)OC1c2ccccc2-c2ccccc21 (configuration not stated)          %           23
 9  CN1CCN(CCSC2Cc3cc(Cl)ccc3Sc3ccccc32)CC1 (configuration not stated)          %            1
10  CCCCOC(=O)C(=O)/C(=C/N1C(=O)/C(=C/C(C)=C/c2ccccc2)SC1=S)C(=O)C=C(C)C          %           11
11  C[n+]1c(/C=C/c2ccc(N3CCCC3)cc2)sc2ccccc21          %           98
12        CCOc1ccc(/C=N\NC(=O)c2ccco2)cc1OCC          %          -22
